- protocol.description: oral toxicity in mice (LD50, mortality over 14 days)
- condition.notes: mouse, in vivo, po, LD50, per os, male mice; repeated in Table IV
experimental.readout: LD50 at 336 h (mg/kg)
API: value field is a number in mg/kg; no unit string.

Illustrative cases are given below, each with its answer.
{"compound": "O=C(c1cccnc1)N1CCN(c2cccc(C(F)(F)F)c2)CC1 [Ex. 6]", "recorded.result": 422}
{"compound": "O=C(c1cccnc1)N1CCN(c2ccccc2F)CC1 [Ex. 8]", "recorded.result": 1000}

Next compound, LD50 at 336 h to be filled in.
Return LD50 at 336 h for the following compound: CN1C(=O)OC(C)(C)C1=O [TRIM, trimethadione, reference compound]
2180

Reference source: patent US4880807A
